Cited source: patent US9567302B2

target: ABHD6 (Mus musculus); test: In vitro competitive activity-based protein profiling (FP-Rh), mouse ABHD6; format: biochemical; parameters: from tissue; host or cells: mouse brain membrane fraction; conditions: Table 1, mouse proteome, 30 min preincubation at 37° C.
READOUT_LABEL: IC50

In [3]: df
Out[3]:
                                   compound   experimental_target  readout_label       assay_value
0  O=C(NC1CCCc2ccccc21)ON1C(=O)CCC1=O (stereo not drawn)  ABHD6 (Mus musculus)           IC50        > 10000 nM
1  O=C1CCC(=O)N1OC(=O)N1CCCCC1C(F)(F)F (stereo not drawn)  ABHD6 (Mus musculus)           IC50        > 10000 nM
2  CN(Cc1cccc(-c2cccnc2)c1)C(=O)ON1C(=O)CCC1=O  ABHD6 (Mus musculus)           IC50        > 10000 nM
3               O=C(ON1C(=O)CCC1=O)N1CCOCC1  ABHD6 (Mus musculus)           IC50        > 10000 nM
4         CN(CCc1ccccc1)C(=O)ON1C(=O)CCC1=O  ABHD6 (Mus musculus)           IC50        > 10000 nM
5  Cc1nc(-c2cccc(CN(C)C(=O)ON3C(=O)CCC3=O)c2)no1  ABHD6 (Mus musculus)           IC50    100 to 1000 nM
6  CC1(C)CC(=O)N(OC(=O)N2CCN(C(c3ccc(Cl)cc3)c3ccc(Cl)cc3)CC2)C1=O  ABHD6 (Mus musculus)           IC50  1000 to 10000 nM
7      O=C(NCCc1ccc2ccccc2c1)ON1C(=O)CCC1=O  ABHD6 (Mus musculus)           IC50        > 10000 nM
8  CC1CC(=O)N(OC(=O)N2CCN(C(c3ccc(Cl)cc3)c3ccc(Cl)cc3)CC2)C1=O (stereo not drawn)  ABHD6 (Mus musculus)           IC50    100 to 1000 nM

###

Target: ABHD6 (Mus musculus, UniProt Q8R2Y0)
Sequence (Q8R2Y0 1-336): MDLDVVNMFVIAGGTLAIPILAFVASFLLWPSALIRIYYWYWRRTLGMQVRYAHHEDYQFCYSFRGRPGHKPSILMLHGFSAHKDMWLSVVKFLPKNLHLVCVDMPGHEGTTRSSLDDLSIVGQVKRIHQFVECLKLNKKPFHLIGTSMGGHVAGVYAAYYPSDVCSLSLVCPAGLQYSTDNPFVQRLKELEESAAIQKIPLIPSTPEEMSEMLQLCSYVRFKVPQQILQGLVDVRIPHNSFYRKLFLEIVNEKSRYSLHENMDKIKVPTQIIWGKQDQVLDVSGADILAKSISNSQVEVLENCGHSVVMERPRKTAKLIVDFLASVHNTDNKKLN
Assay: In vitro competitive activity-based protein profiling (FP-Rh), mouse ABHD6
Type: biochemical
Set-up: from tissue; host or cells: mouse brain membrane fraction
Settings: Table 2, mouse proteome, 30 min preincubation at 37° C.
READOUT_LABEL: IC50

>>> print(df.to_string())
                                   compound       assay_value
0  Cc1c(CN2CCN(C(=O)ON3C(=O)CCC3=O)CC2)cccc1N1CCOCC1 [Example 121]    100 to 1000 nM
1  O=C(ON1C(=O)CCC1=O)N1CCN(Cc2cc(Cl)cc(N3CCCCC3)c2)CC1 [Example 132]    100 to 1000 nM
2  O=C(ON1C(=O)CCC1=O)N1CCN(Cc2ccc(N3CCOCC3)cc2Cl)CC1 [Example 94]  1000 to 10000 nM
3  O=C(ON1C(=O)CCC1=O)N1CCN(Cc2cccc(F)c2N2CCOCC2)CC1 [Example 93]        > 10000 nM
4  O=C(ON1C(=O)CCC1=O)N1CCN(Cc2ccc(Br)cc2N2CCOCC2)CC1 [Example 66]  1000 to 10000 nM
5  O=C(ON1C(=O)CCC1=O)N1CCN(Cc2cccc(N3CCOCC3)c2)CC1 [Example 83]    100 to 1000 nM
6  O=C(ON1C(=O)CCC1=O)N1CCN(Cc2ccc(N3CCCC3)cc2Cl)CC1 [Example 78]          < 100 nM
7  O=C(ON1C(=O)CCC1=O)N1CCN(Cc2ccc(F)c(N3CCCC3)c2)CC1 [Example 124]    100 to 1000 nM
